The entries below are paired with their reported pIC50.
target: C-C motif chemokine 2 (Homo sapiens, UniProt P13500); test: Inhibition of MCP-1 in LPS-stimulated human whole blood incubate for 24 hrs by immuno assay
Sequence (P13500 whole entry): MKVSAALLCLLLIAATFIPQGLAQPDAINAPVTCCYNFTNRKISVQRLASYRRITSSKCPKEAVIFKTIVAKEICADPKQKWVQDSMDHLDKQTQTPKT
pIC50: −log10 of the molar value.

COMPOUND: Cc1nc(C2=CN(C)C(=O)[C@H](C)c3ccc(OCCO)cc32)c[nH]1
pIC50: 7.40
//
COMPOUND: C[C@H]1C(=O)N(C)C=Cc2cc(CCO)ccc21
pIC50: 6.00
//
COMPOUND: CCS(=O)(=O)c1ccc2c(c1)C(c1ccncc1)=CN(C)C(=O)C2C (racemic)
pIC50: 5.90
//
COMPOUND: COCCOc1ccc2c(c1)C=CN(C)C(=O)[C@@H]2C
pIC50: 6.00
//
COMPOUND: C[C@H]1C(=O)N(C)C=C(c2cnn(C)c2)c2cc([C@@H](O)CO)ccc21
pIC50: 7.40
//
COMPOUND: CCS(=O)(=O)c1ccc2c(c1)C=CN(C)C(=O)[C@@H]2C (racemic)
pIC50: 6.40
//
COMPOUND: C[C@H]1C(=O)N(C)C=Cc2cc(OC(CO)CO)ccc21
pIC50: 6.20
//
COMPOUND: CCS(=O)(=O)c1ccc2c(c1)C(C(N)=O)=CN(C)C(=O)[C@@H]2C
pIC50: 5.70
//
COMPOUND: CCOc1ccc2c(c1)C(c1cn(C)cn1)=CN(C)C(=O)[C@@H]2C
pIC50: 7.30
//
COMPOUND: CCOc1ccc2c(c1)C(c1cc[nH]n1)=CN(C)C(=O)C2C (racemic)
pIC50: 6.90

====

test: Half-life in Wistar Han rat at 2.9 mg/kg, po or 2.1 mg/kg, iv measured upto 24 hrs by LC-MS/MS analysis; type: ADME, organism-based; conditions: in vivo
PARAMETER_MEASURED: half-life (min)

ENTRY_SMILES: C[C@H]1C(=O)N(C)C=C(c2cn[nH]c2)c2cc([C@@H](O)CO)ccc21
READOUT_UNITS: min
NUMERIC_READOUT: 45.6

====

experiment: Intrinsic clearance in human hepatocytes measured after 120 mins by LC-MS/MS analysis; assay type: ADME, cell-based, Hepatocyte; conditions: 2 h
The entries below are paired with their reported CLH.
PARAMETER_MEASURED: CLH

ENTRY_SMILES: C[C@H]1C(=O)N(C)C=Cc2cc(CN3CCOCC3)ccc21
PARAMETER_MEASURED: CLH
RESULT: < 0.45 mL/min/g
//
ENTRY_SMILES: C[C@H]1C(=O)N(C)C=C(c2cn[nH]c2)c2cc([C@@H](O)CO)ccc21
PARAMETER_MEASURED: CLH
RESULT: < 0.45 mL/min/g
//
ENTRY_SMILES: C[C@H]1C(=O)N(C)C=C(c2cnn(C)c2)c2cc([C@H](O)CO)ccc21
PARAMETER_MEASURED: CLH
RESULT: < 0.45 mL/min/g
//
ENTRY_SMILES: CCOc1ccc2c(c1)C(c1cnn(C)c1)=CN(C)C(=O)[C@@H]2C
PARAMETER_MEASURED: CLH
RESULT: 9.14 mL/min/g
//
ENTRY_SMILES: C[C@H]1C(=O)N(C)C=C(c2cnn(C)c2)c2cc([C@@H](O)CO)ccc21
PARAMETER_MEASURED: CLH
RESULT: < 0.45 mL/min/g
//
ENTRY_SMILES: COc1cc2c(cc1OC)[C@@H](C)C(=O)N(C)C=C2
PARAMETER_MEASURED: CLH
RESULT: < 0.45 mL/min/g
//
ENTRY_SMILES: CCS(=O)(=O)c1ccc2c(c1)C(c1cnn(C)c1)=CN(C)C(=O)[C@@H]2C
PARAMETER_MEASURED: CLH
RESULT: < 0.45 mL/min/g
//
ENTRY_SMILES: CCS(=O)(=O)c1ccc2c(c1)C(C)=CN(C)C(=O)[C@@H]2C
PARAMETER_MEASURED: CLH
RESULT: < 0.45 mL/min/g
//
ENTRY_SMILES: C[C@H]1C(=O)N(C)C=C(c2cn[nH]c2)c2cc([C@H](O)CO)ccc21
PARAMETER_MEASURED: CLH
RESULT: 0.52 mL/min/g

====

target: C-C motif chemokine 2 (Homo sapiens); assay: Inhibition of MCP-1 in LPS-stimulated human whole blood incubate for 24 hrs by immuno assay
IC50 strictly under 0.04 µM means t; at 0.04 µM or over means f.

COMPOUND: CCOc1ccc2c(c1)C(c1cn[nH]c1)=CN(C)C(=O)[C@@H]2C
CLASS_ASSIGNMENT: t
//
COMPOUND: C[C@H]1C(=O)N(C)C=Cc2cc(CN3CCCC3)ccc21
CLASS_ASSIGNMENT: f
//
COMPOUND: C[C@H]1C(=O)N(C)C=Cc2cc(C(O)CO)ccc21 (stereo partly specified)
CLASS_ASSIGNMENT: f
//
COMPOUND: C[C@H]1C(=O)N(C)C=Cc2ccccc21 (racemic)
CLASS_ASSIGNMENT: f
//
COMPOUND: CCOc1ccc2c(c1)C(c1c[nH]c(C)n1)=CN(C)C(=O)[C@@H]2C
CLASS_ASSIGNMENT: t

====

molecular target: Bromodomain-containing protein 4 (Homo sapiens); assay: Inhibition of BRD4 BD2 (unknown origin) measured by TR-FRET assay
PARAMETER_MEASURED: log10 IC50 (log10 of the value in nM)

MOLECULE: CC1C(=O)N(C)C=Cc2cc(OCC(C)(C)O)ccc21 (racemic)
log10 IC50: 2.90
//
MOLECULE: C[C@H]1C(=O)N(C)C=Cc2cc(OC(CO)CO)ccc21
log10 IC50: 3.10
//
MOLECULE: COCCOc1ccc2c(c1)C=CN(C)C(=O)[C@@H]2C
log10 IC50: 2.90
//
MOLECULE: C[C@H]1C(=O)N(C)C=C(c2cn[nH]c2)c2cc([C@@H](O)CO)ccc21
log10 IC50: 1.60
//
MOLECULE: C[C@H]1C(=O)N(C)C=Cc2cc(C(O)CO)ccc21 (stereo not given in full)
log10 IC50: 3.30
//
MOLECULE: C[C@H]1C(=O)N(C)C=Cc2ccccc21 (racemic)
log10 IC50: 3.70
//
MOLECULE: CCS(=O)(=O)c1ccc2c(c1)C(C(N)=O)=CN(C)C(=O)[C@@H]2C
log10 IC50: 3.50
//
MOLECULE: C[C@H]1C(=O)N(C)C=Cc2cc(C(CO)CO)ccc21
log10 IC50: 3.30
//
MOLECULE: CCOc1ccc2c(c1)C(c1c[nH]c(C)n1)=CN(C)C(=O)[C@@H]2C
log10 IC50: 1.30
//
MOLECULE: CCOc1ccc2c(c1)C(n1ccnc1)=CN(C)C(=O)C2C (racemic)
log10 IC50: 4.40
//
MOLECULE: CCOc1ccc2c(c1)C=CN(C)C(=O)C2C (racemic)
log10 IC50: 3.00
//
MOLECULE: COc1cc2c(cc1OC)[C@@H](C)C(=O)N(C)CC2
log10 IC50: 4.20
//
MOLECULE: CCS(=O)(=O)c1ccc2c(c1)C(c1ccccc1)=CN(C)C(=O)C2C (racemic)
log10 IC50: 2.70
//
MOLECULE: CCS(=O)(=O)c1ccc2c(c1)C(C)=CN(C)C(=O)[C@@H]2C
log10 IC50: 2.40
//
MOLECULE: COc1cc2c(cc1OC)[C@H](C)C(=O)N(C)C=C2
log10 IC50: 4.70
//
MOLECULE: Cc1cc(-c2ccccc2)cn(C)c1=O
log10 IC50: 4.00
//
MOLECULE: CCOc1ccc2c(c1)C(c1cc[nH]n1)=CN(C)C(=O)C2C (racemic)
log10 IC50: 1.30
//
MOLECULE: COc1cc2c(cc1OC)[C@H](C)C(=O)N(C)CC2
log10 IC50: 5.20
//
MOLECULE: C[C@H]1C(=O)N(C)C=Cc2cc(CCO)ccc21
log10 IC50: 3.20
//
MOLECULE: COC[C@@H](C)n1c(C2CCOCC2)nc2cnc3cc(-c4c(C)noc4C)c(OC)cc3c21
log10 IC50: 2.10

====

test: Half-life in Wistar Han rat at 3 mg/kg, po or 1 mg/kg, iv measured upto 24 hrs by LC-MS/MS analysis; format: ADME, organism-based; settings: in vivo
PARAMETER_MEASURED: half-life (min)

ENTRY_SMILES: C[C@H]1C(=O)N(C)C=C(c2cnn(C)c2)c2cc([C@@H](O)CO)ccc21
READOUT_UNITS: min
NUMERIC_READOUT: 44.4

====

assay: Unbound fraction in Wistar Han rat at 3.1 mg/kg, po or 1 mg/kg, iv measured upto 24 hrs by LC-MS/MS analysis; format: ADME, organism-based; conditions: in vivo

ENTRY_SMILES: C[C@H]1C(=O)N(C)C=C(c2cnn(C)c2)c2cc([C@H](O)CO)ccc21
Fu: 0.61
